TARGET ENTITY: mushroom tyrosinase (Agaricus bisporus)
Sequence (C7FF04 1-392): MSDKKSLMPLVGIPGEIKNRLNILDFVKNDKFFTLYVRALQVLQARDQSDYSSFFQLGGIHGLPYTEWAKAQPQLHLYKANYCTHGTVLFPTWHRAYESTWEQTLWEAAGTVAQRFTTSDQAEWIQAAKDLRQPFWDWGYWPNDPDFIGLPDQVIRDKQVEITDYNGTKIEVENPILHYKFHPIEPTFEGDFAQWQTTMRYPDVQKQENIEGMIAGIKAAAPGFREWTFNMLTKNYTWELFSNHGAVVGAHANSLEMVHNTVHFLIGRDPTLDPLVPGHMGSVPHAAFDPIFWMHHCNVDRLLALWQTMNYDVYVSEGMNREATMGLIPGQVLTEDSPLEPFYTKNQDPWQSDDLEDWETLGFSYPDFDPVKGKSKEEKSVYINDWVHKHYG
pKi: −log10 of the molar value.
ENDPOINT LABEL: pKi

INSERT INTO assay_data (compound, target_entity, reported_value) VALUES
  ('O=[N+]([O-])c1cccc(-c2oc3cc(Br)cc(Br)c3c(=S)c2O)c1', 'mushroom tyrosinase (Agaricus bisporus)', 5.70);
